Each recorded value in this set is attributed to patent US20110142868A1.

# conversion of 0708-30 by PAD4, 10 µM inhibitor (0 µM: 81) listing for each entry below
SYSTEM: recombinant human PAD4 (human, UniProt Q9UM07 1-663)
Sequence (Q9UM07 whole entry): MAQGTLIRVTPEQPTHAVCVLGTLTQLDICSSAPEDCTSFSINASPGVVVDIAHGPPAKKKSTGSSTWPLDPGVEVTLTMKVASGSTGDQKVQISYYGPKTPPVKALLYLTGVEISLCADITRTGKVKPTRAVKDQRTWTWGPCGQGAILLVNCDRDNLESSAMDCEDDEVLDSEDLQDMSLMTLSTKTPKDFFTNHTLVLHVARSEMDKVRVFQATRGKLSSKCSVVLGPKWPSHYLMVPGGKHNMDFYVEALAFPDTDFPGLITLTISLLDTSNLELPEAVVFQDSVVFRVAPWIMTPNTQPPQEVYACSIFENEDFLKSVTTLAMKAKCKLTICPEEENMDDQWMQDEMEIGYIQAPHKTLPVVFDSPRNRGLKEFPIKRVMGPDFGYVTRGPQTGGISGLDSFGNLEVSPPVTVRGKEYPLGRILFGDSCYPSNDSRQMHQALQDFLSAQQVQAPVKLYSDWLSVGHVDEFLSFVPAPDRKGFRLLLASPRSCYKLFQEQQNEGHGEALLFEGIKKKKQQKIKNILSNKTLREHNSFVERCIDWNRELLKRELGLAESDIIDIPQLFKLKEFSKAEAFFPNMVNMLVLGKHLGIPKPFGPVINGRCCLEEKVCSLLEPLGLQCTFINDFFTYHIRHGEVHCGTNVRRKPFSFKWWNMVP
PROTOCOL: cell-based or functional assay
Square brackets hold non-standard residues; d marks the D form. Orn(fluoroacetimidoyl) = N=C(CF)NCCC[C@H](N)C(=O)O
Could you write the number and then its unit?

Supply measured conversion of 0708-30 by PAD4, 10 µM inhibitor (0 µM: 81) of Ac-KFD[Orn(fluoroacetimidoyl)]DFI-NH2 (SMILES CC[C@H](C)[C@H](NC(=O)[C@H](Cc1ccccc1)NC(=O)[C@H](CC(=O)O)NC(=O)[C@H](CCCNC(=N)CF)NC(=O)[C@H](CC(=O)O)NC(=O)[C@H](Cc1ccccc1)NC(=O)[C@H](CCCCN)NC(C)=O)C(N)=O) [0743-58FA] in your reply.
38%

Supply measured conversion of 0708-30 by PAD4, 10 µM inhibitor (0 µM: 81) of Ac-KHD[Orn(fluoroacetimidoyl)]DFL-NH2 (SMILES CC(=O)N[C@@H](CCCCN)C(=O)N[C@@H](Cc1c[nH]cn1)C(=O)N[C@@H](CC(=O)O)C(=O)N[C@@H](CCCNC(=N)CF)C(=O)N[C@@H](CC(=O)O)C(=O)N[C@@H](Cc1ccccc1)C(=O)N[C@@H](CC(C)C)C(N)=O) [0748-25FA] in your reply.
45%

Supply measured conversion of 0708-30 by PAD4, 10 µM inhibitor (0 µM: 81) of Ac-KLH[Orn(fluoroacetimidoyl)]EWM-NH2 (SMILES CSCC[C@H](NC(=O)[C@H](Cc1c[nH]c2ccccc12)NC(=O)[C@H](CCC(=O)O)NC(=O)[C@H](CCCNC(=N)CF)NC(=O)[C@H](Cc1c[nH]cn1)NC(=O)[C@H](CC(C)C)NC(=O)[C@H](CCCCN)NC(C)=O)C(N)=O) [0748-17FA] in your reply.
64%

Supply measured conversion of 0708-30 by PAD4, 10 µM inhibitor (0 µM: 81) of Ac-HFD[Orn(fluoroacetimidoyl)]EWI-NH2 (SMILES CC[C@H](C)[C@H](NC(=O)[C@H](Cc1c[nH]c2ccccc12)NC(=O)[C@H](CCC(=O)O)NC(=O)[C@H](CCCNC(=N)CF)NC(=O)[C@H](CC(=O)O)NC(=O)[C@H](Cc1ccccc1)NC(=O)[C@H](Cc1c[nH]cn1)NC(C)=O)C(N)=O) [0748-01FA] in your reply.
50%
